Test system: velvetleaf
Test: Test C pre-/postemergence herbicide test
Assay type: in vivo, Abutilon theophrasti
Details: Preemergence, 250 g ai/ha
measure.name: Plant response rating (scale of 0 to 100), Velvetleaf
Number, no unit, nothing else.

>>> print(df.to_string())
                                   compound  reported_result
0  O=C1NCC(c2ccc(C(F)(F)F)c(F)c2)C1C(=O)Nc1cccc(F)c1F (racemic)               25
1  O=C1NCC(c2cccc(Br)c2)C1C(=O)Nc1ccccc1F (centres unmarked)                0
2  O=C1NCC(c2cccc(C(F)(F)F)c2)C1C(=O)Nc1cccc(F)c1F (centres unmarked)               40

Given the entry O=C1NCC(c2ccc(C(F)(F)F)nc2)C1C(=O)Nc1cccc(F)c1F (racemic) , report its measured Plant response rating (scale of 0 to 100), Velvetleaf. 5

For the compound shown here, O=C1NCC(c2cccc(Br)c2)C1C(=O)Nc1cccc(F)c1F (centres unmarked) , give the reported Plant response rating (scale of 0 to 100), Velvetleaf. 15
